ASSAY PROCEDURE: 14-day rat neurotoxicology study: toxicokinetics
Format: in vivo, Sprague-Dawley rats
TEST CONDITIONS: male, Sprague-Dawley, rat, plasma, po, 50 mg/kg/day, 50 mg/kg/day oral, male, Day 7; read-out: AUC24
ASSAY METRIC: AUC

Reported AUC, compound "CC1=CN2CCS(=O)(=O)N=C2C(c2ccc(OC3CCCCC3)cc2)=N1" : ____ 10700 ng·h/mL

---

ASSAY PROCEDURE: 14-day rat neurotoxicology study: toxicokinetics
Format: in vivo, Sprague-Dawley rats
TEST CONDITIONS: female, Sprague-Dawley, rat, plasma, po, 100 mg/kg/day, 100 mg/kg/day oral, female, Day 14
ASSAY METRIC: Cmax (ng/mL)
Use ng/mL as the unit, but write only the number.

Reported Cmax, compound "CC1=CN2CCS(=O)(=O)N=C2C(c2ccc(OC3CCCCC3)cc2)=N1" : ____ 1670

---

ASSAY PROCEDURE: Phase 1 SRD/multiple-rising dose (MRD, Part 2) plasma PK in healthy subjects
Format: in vivo, human
TEST CONDITIONS: both sexes, human, plasma, oral, 0.3 mg, 0.3 mg QD, Study Day 18; mean; read-out: Cmax, ss
ASSAY METRIC: Cmax
Remember to put the unit after the number in your answer.

Reported Cmax, compound "CC1=CN2CCS(=O)(=O)N=C2C(c2ccc(OC3CCCCC3)cc2)=N1" : ____ 7.87 ng/mL

---

ASSAY PROCEDURE: Phase 1 SRD/multiple-rising dose (MRD, Part 2) plasma PK in healthy subjects
Type: in vivo, human
TEST CONDITIONS: both sexes, human, plasma, oral, 6 mg, 6 mg QD, Study Day 6; mean; read-out: Cmax
Procedure: The study was designed to assess the safety, tolerability, PK, and PD of COMPOUND A. A total of 88 subjects were enrolled in 6 SRD and 5 SRD/MRD cohorts (n=8 per cohort). The study was composed of 2 parts. […] Referring now to FIG. 3, mean plasma concentration-time profiles (linear and semilog scales) of COMPOUND A were determined on Day 18 following oral administration of COMPOUND A QD for 13 days.
ASSAY METRIC: Cmax (ng/mL)
Use ng/mL as the unit, but write only the number.

Reported Cmax, compound CC1=CN2CCS(=O)(=O)N=C2C(c2ccc(OC3CCCCC3)cc2)=N1 [COMPOUND A] : ____ 50.2

---

ASSAY PROCEDURE: Phase 1 SRD/multiple-rising dose (MRD, Part 2) plasma PK in healthy subjects
Assay type: in vivo, human
TEST CONDITIONS: both sexes, human, plasma, oral, 9 mg, 9 mg QD, Study Day 18; mean; read-out: AUCτ
ASSAY METRIC: AUC (ng·h/mL)
Use ng·h/mL as the unit, but write only the number.

Reported AUC, compound CC1=CN2CCS(=O)(=O)N=C2C(c2ccc(OC3CCCCC3)cc2)=N1 [COMPOUND A] : ____ 4600

---

ASSAY PROCEDURE: Phase 1 single-rising dose (SRD, Part 1) plasma PK in healthy subjects
Assay type: in vivo, human
TEST CONDITIONS: both sexes, human, plasma; single oral 9 mg; mean, N = 6
ASSAY METRIC: AUC(0-t)
Remember to put the unit after the number in your answer.

Reported AUC(0-t), compound "CC1=CN2CCS(=O)(=O)N=C2C(c2ccc(OC3CCCCC3)cc2)=N1" : ____ 4490 ng·h/mL
